The values you see were collected from patent US9725442B2.

Biological target: CRTH2 (Homo sapiens (Human), UniProt Q9Y5Y4)
Sequence (Q9Y5Y4 whole entry): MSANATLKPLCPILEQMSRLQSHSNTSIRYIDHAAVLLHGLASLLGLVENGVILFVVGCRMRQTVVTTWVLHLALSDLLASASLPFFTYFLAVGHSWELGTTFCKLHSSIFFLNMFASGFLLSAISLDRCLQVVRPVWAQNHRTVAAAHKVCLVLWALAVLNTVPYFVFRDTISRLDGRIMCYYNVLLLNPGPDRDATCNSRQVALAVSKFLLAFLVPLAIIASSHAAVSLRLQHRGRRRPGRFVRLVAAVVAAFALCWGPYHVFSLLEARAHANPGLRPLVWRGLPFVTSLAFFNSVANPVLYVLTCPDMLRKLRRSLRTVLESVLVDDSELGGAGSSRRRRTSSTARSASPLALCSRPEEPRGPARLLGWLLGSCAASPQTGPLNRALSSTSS
Test: CRTH2 receptor binding inhibitory activity ([3H]-PGD2 displacement, membranes of CRTH2-expressing K562 cell)
Conditions: CRTH2 receptor binding, [3H]-PGD2 displacement, membrane of CRTH2-expressing K562 cell; categorized AAAA/AAA; read-out: Ki
Would you mind telling me the reported Ki of each entry?

*Q* Entry COc1ccc(S(=O)(=O)N2C[C@H](n3nc(CC(=O)O)c4ccccc43)[C@@](C)(F)C2)cn1 (racemic) [Compound I-208] has what Ki?
*A* < 100 nM

*Q* What Ki value was documented for this molecule, CC(C)Oc1ccc(S(=O)(=O)N2CC(F)[C@@H](n3nc(CC(=O)O)c4ccc(F)cc43)C2)cc1 (stereo partly shown) [Compound I-26] ?
*A* < 100 nM

*Q* For the molecule CCOc1ccc(S(=O)(=O)N2C[C@H](n3nc(CC(=O)O)c4ccccc43)C[C@@H]2C(N)=O)cc1 [Compound I-319] , what Ki is on record?
*A* 100 to 5000 nM

*Q* # query: Ki of entry Cc1nc2ccc(S(=O)(=O)N3C[C@@H](C)[C@@H](n4nc(CC(=O)O)c5ccccc54)C3)cc2s1 [Compound I-214]
*A* 100 to 5000 nM

*Q* Value lookup for Ki; key = CCOc1ccc(S(=O)(=O)N2C[C@@H](C)[C@@H](n3nc(CC(=O)O)c4ccc(C5=CCCCC5)cc43)C2)cc1 [Compound I-220]
*A* < 100 nM

*Q* Fill in the blank: the reported Ki of COc1ccc(S(=O)(=O)N2C[C@@H](C)[C@@H](n3nc(CC(=O)O)c4ccc(Cl)cc43)C2)cc1 [Compound I-140] is ____.
*A* < 100 nM

*Q* Could you share which Ki value was measured for CC(C)Oc1ccc(S(=O)(=O)N2C[C@H](n3nc(CC(=O)O)c4ccc(F)cc43)C[C@@H]2COCCCOc2ccccc2)cc1 [Compound I-289] ?
*A* 100 to 5000 nM
